Numbers sourced from paper PMC9352680.

Molecular target: T1, PUF4 RNA-binding domain (Saccharomyces cerevisiae, UniProt P25339 537-888)
T1 sequence: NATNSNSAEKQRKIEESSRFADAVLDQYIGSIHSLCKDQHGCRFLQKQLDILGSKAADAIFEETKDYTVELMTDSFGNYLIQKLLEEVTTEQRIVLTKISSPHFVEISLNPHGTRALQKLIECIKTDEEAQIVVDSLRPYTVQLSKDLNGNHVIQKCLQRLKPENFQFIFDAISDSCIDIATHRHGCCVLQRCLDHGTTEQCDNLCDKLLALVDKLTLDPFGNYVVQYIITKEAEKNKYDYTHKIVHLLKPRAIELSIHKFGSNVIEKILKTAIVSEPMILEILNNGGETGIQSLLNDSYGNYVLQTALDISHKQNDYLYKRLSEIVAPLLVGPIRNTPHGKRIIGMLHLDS
Test: Mg; RNA-MaP; 20 mM Na-HEPES pH 7.4, 30 mM KOAc, 0.75 mM MgCl2, 0.1% Tween-20, 5% glycerol, 0.1 mg/mL BSA, 2 mM DTT; 25 C; 0.0125-409.6 nM protein
Conditions: tags: N-His6-TEV cleaved; C-SNAP kept, Cy3B-labelled; label: tethered on chip by stalled RNA polymerase
ASSAY READOUT: pKd
pKd is defined as minus the log10 of a concentration measured in mol/L.

BINDER	pKd
UCUCUUGCACACUAUUAACUCUCUU (ssRNA) [Id_ii_S1_P4E.4_K4.3_C4.2_[C-2G]_[T-1C]_H4.3_A4.1_F4.1_T4.2_[G10A]_[T11C]]	7.16
UCUCUUCCUAUAUUAUUACAUCUCUU (ssRNA) [Id_ii_S1_P5E.3_K5.2_C5.2_[T-1C]_H5.2_A5.1_F5.1_T5.2_[T11C]]	6.23
UCUCUUCAUGUAUAUUAACUCUCUU (ssRNA) [Id_ii_S1_P4E.2_K4.1_C4.2_[T-1A]_H4.1_A4.1_F4.1_T4.2_[G10A]_[T11C]]	8.94
ACAAACCUUGCCUUAUAUAUAACAAAC (ssRNA) [Ie_S3_P3E.2_K3.1_C3.2_H3.1_[+2CCT]_A3.1_F3.1_T3.2]	5.93

Here's the next entry for you.
Item UCUCUUUAUAUAUAUCUCUU (ssRNA) [Ia_S1_P3E.1_K3.1_C3.1_H3.1_[G2A]_A3.1_F3.1_T3.1] : provide pKd 6.20
